# Procedure text: basal RPMI8226 mitochondrial membrane potential changes, profiling panel, cell-based, JC-1 fluorescence, 24 h, 100 nL compound (AID 1169); note: test concentration not given here
# Test conditions: RPMI8226 myeloma, JC-1 mitochondrial potential fluorescence, higher = more signal
Would you mind telling me the reported z-score of each entry?

Recorded z-score of CCCCN1CC=CC23O[C@@H]4/C=C\CCC(C)OC(=O)C4[C@H]2C(=O)N(C(CO)C(C)C)[C@@H]3C1=O (some centres undefined) , please.
0.0795

Quick one: z-score of `C=CCOC(=O)[C@H]1[C@@H]2C(=O)O[C@@H](c3ccccc3)[C@@H](c3ccccc3)N2[C@@H](c2ccc(OCCOC(=O)[C@@H]3C[C@@H]4C(=O)N5CCC[C@H]5C(=O)N4[C@@H]3c3ccc(O)cc3)cc2)[C@]12C(=O)Nc1ccc(I)cc12` ?
-0.655

I'd like to know its z-score. The compound in question is OCCCC1=CC(c2ccc(CN3CCCC3)cc2)N(Cc2sc3ccccc3c2Cl)CC1 (centres undefined)
-0.252

Look up z-score: COc1cc2c(cc1O)C(C)N(Cc1ccc([N+](=O)[O-])o1)CC2 (centres undefined)
0.105

----------
# Procedure text: osmotic lysis modulators in infected erythrocytes, primary screen, PSAC antagonist project, cell-based, P. falciparum Indochina, OD700, 3 h (AID 1156)
# Test conditions: higher = more signal, called active from +8 up or from −8 down
Measured parameter: z-score
Give your answer as a number; write no unit.

Requested field: z-score. Item: C=CCC(OC(C)=O)[C@@H]1[C@@H](N(Cc2cc3ccccc3o2)C(=O)Cc2ccc(F)cc2)c2cc(OCCCO)ccc2N1C(=O)c1ccc2ccccc2c1 (some centres not stated)
-0.97

What value of measured z-score is listed for `O=C(N1CCCCC1)[C@@]1(CCS(=O)(=O)c2ccccc2)COC(c2ccc(OCCCO)cc2)=N1` ?
2.47

Tell me the measured z-score of `COC(=O)[C@@]1(Cc2ccc(OC)cc2)[C@@H]2C(=CC(=O)[C@H]2CC(=O)C(=O)N(C)C)CN1C(=O)c1ccccc1` , please.
0.481

Fill in the blank: the reported z-score of `CN(C)C(=O)[C@@]1(Cc2ccccc2CN=[N+]=[N-])N=C(c2ccc(OCCCO)cc2)O[C@H]1c1ccccc1CN=[N+]=[N-]` is ____.
0.589

Requested field: z-score. Item: CC(c1ccccc1)C(O)C1C=CC2C(=O)N(c3ccccc3)C(=O)C2N1Nc1ccc([N+](=O)[O-])cc1 (configuration not stated)
0.283

z-score for C=CCC(OC(C)=O)[C@@H]1[C@@H](N(Cc2ccc(-c3cccc(C(F)(F)F)c3)o2)C(=O)c2ccc(C)cc2)c2cc(OCCCO)ccc2N1C(=O)c1ccc2ccccc2c1 (some centres not stated) ?
0.0854

Return reported z-score; argument: CCOc1cc(C(O)C2C=CC3C(=O)N(c4ccccc4)C(=O)C3N2Nc2ccc(C#N)cc2)ccc1O (configuration not stated)
0.743

----------
Please go through the items and note down their composite z-score.
# System: Noggin (protein binding on small-molecule microarray)
# Procedure text: Noggin binders on small-molecule microarray, primary screen, biochemical, 635/667 nm fluorescence (AID 1095);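 note: score merges 667 nm feature fluorescence with signal to noise over triplicate slides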
# Test conditions: 635 nm fluorescence, higher = more signal
// keep it numeric: no unit symbol after the value

Requested read-out composite z-score, target or system Noggin (protein binding on small-molecule microarray), entry C=CCC(OC(C)=O)[C@@H]1[C@@H](N(Cc2cc3ccccc3o2)C(=O)c2ccc(-c3ccccc3)cc2)c2cc(OCCCO)ccc2N1C(=O)c1ccc2ccccc2c1 (some centres undefined)
0.228

Provide the documented composite z-score with Noggin (protein binding on small-molecule microarray) as the system for `C=C(COC)/C(=C/C[C@H](OC(=O)c1ccncc1)c1ccccc1OCCO)c1cnc2ccccc2c1`
1.44

Give the reported composite z-score for O=C1C2C=CC(C(O)c3ccc(Br)cc3)N(Nc3ccccc3F)C2C(=O)N1c1ccccc1 (centres undefined) (system: Noggin (protein binding on small-molecule microarray)).
-0.231

Item `C=C[C@@H](OC)[C@H](OC(=O)Nc1ccc(SC)cc1)c1ccc(O)c(F)c1` with Noggin (protein binding on small-molecule microarray) - composite z-score?
0.808

Just for reference, PubChem BioAssay is where these values come from.
